B1: PTPN9 (parent)
chain: ILFSLPPALDWDSVHVPGPHAMTI

# Variants of: B1
# Assay Notes: protein stability index of a GFP-peptide fusion (GPS, HEK-293T) (PSI 1-6); higher = more stable;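 note: lentivirally expressed fusions sorted by FACS into six bins by GFP to DsRed ratio, PSI derived from sequencing read proportions per bin multiplied by bin number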
# Condition Details: c terminus: a fixed tail appended
Parameter Measured: protein stability index
API note: the answer field is a bare number with no unit suffix.

Using the record for L5S , report its protein stability index.
2.25

Field request: protein stability index | item: F3I
2.7

Need protein stability index, item M22V
2.64

I am curious: what protein stability index value has been reported for M22N ?
1.39

Query (variant): L2R ; field requested: protein stability index
1.7

These data points were gathered from the supplement of paper PMC10567573.
